ASSAYED TARGET: Type-1 angiotensin II receptor (Bos taurus)
Sequence (P25104 whole entry): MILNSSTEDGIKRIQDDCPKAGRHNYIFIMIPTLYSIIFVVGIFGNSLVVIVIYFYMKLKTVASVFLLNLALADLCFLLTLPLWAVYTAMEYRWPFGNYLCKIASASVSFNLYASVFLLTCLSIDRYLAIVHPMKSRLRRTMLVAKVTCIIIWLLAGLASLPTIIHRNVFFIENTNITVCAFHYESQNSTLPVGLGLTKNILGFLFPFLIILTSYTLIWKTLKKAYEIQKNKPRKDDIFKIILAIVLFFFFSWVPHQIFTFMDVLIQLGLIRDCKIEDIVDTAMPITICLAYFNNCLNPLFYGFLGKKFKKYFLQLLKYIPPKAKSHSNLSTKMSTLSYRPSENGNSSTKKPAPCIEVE
pIC50: −log10 of the molar value.
Short version: pIC50 at least 6 is rule met, less is rule not met.

{"columns": ["RECORD SMILES", "ASSAYED TARGET", "ASSIGNED LABEL"],
 "data": [
  ["CCCOc1nc2ccc(C)cn2c(=O)c1Cc1ccc(-c2ccccc2-c2nn[nH]n2)cc1", "Type-1 angiotensin II receptor (Bos taurus)", "rule not met"],
  ["CCCCc1nc(Cl)c(CO)n1Cc1ccc(-c2ccccc2-c2nn[nH]n2)cc1", "Type-1 angiotensin II receptor (Bos taurus)", "rule met"],
  ["CC(C)Oc1nc2ccc(C(=O)O)cn2c(=O)c1Cc1ccc(-c2ccccc2-c2nnn[nH]2)cc1", "Type-1 angiotensin II receptor (Bos taurus)", "rule not met"],
  ["CCCOc1nc2cc(C)ccn2c(=O)c1Cc1ccc(-c2ccccc2-c2nn[nH]n2)cc1", "Type-1 angiotensin II receptor (Bos taurus)", "rule not met"],
  ["COc1nc2ccccn2c(=O)c1Cc1ccc(-c2ccccc2-c2nn[nH]n2)cc1", "Type-1 angiotensin II receptor (Bos taurus)", "rule not met"]
]}
